# System: LAMA-84
# measurement_description: Anti-proliferative assay (Oncodesign)
# Format: cell-based
# assay_conditions: Homo sapiens; LAMA-84 (BLOOD); read-out: IC50 (Concentration of test compound)
parameter_measured: pIC50
Lab note — pIC50 values are minus log10 of concentrations in M.

input: Recorded pIC50 of CC(C)c1cc(C(=O)N2Cc3ccc(CN4CCN(C)CC4)cc3C2)c(O)cc1O , please.
output: 5.96

* * *

# measurement_description: Whole blood stability
# Type: in vitro ADME
# assay_conditions: 1 μM, 37° C., 120 mins
Counter-ions that a name gives are not always drawn.
Sorting guide: entries reporting Percentage remaining Mouse blood beneath 20% go in the fulfilled pile, the rest go in the not fulfilled pile.

input: Lab note: Percentage remaining Mouse blood threshold 20%. Does this compound come in strictly under it? CC(C)c1cc(C(=O)N2Cc3ccc(CN4CCN(C)CC4)cc3C2)c(OC(=O)OC(C)(C)C)cc1OC(=O)N(C)C
output: fulfilled

input: And for CC(C)c1cc(C(=O)N2Cc3ccc(CN4CCN(C)CC4)cc3C2)c(OC(=O)N2CCCC2)cc1OC(=O)N1CCCC1 ?
output: not fulfilled

input: Query C=CCOc1cc(O)c(C(C)C)cc1C(=O)N1Cc2ccc(CN3CCN(C)CC3)cc2C1 next
output: not fulfilled

input: Follow-up item: CC(C)c1cc(C(=O)N2Cc3ccc(CN4CCN(C)CC4)cc3C2)c(OC(=O)N2CCOCC2)cc1OC(=O)N1CCOCC1
output: fulfilled

input: Cool, now CC(C)c1cc(C(=O)N2Cc3ccc(CN4CCN(C)CC4)cc3C2)c(OC(=O)N2CCOCC2)cc1O
output: fulfilled

input: Moving on to COc1cc(O)c(C(C)C)cc1C(=O)N1Cc2ccc(CN3CCN(C)CC3)cc2C1
output: not fulfilled

input: Try the compound CC(C)c1cc(C(=O)N2Cc3ccc(CN4CCN(C)CC4)cc3C2)c(OC(=O)C(C)(C)C)cc1OC(=O)C(C)(C)C [Example 24, dihydrochloride]
output: fulfilled

* * *

# Test system: BV-173
# measurement_description: Anti-proliferative assay (Oncodesign)
# Type: cell-based
# assay_conditions: Homo sapiens; BV-173 (BLOOD); read-out: IC50 (Concentration of test compound)
parameter_measured: IC50 (µM)
Just the number please, in µM, no unit attached.

input: // lookup IC50 for CC(C)c1cc(C(=O)N2Cc3ccc(CN4CCN(C)CC4)cc3C2)c(O)cc1O
output: 0.073

* * *

# System: KB
# measurement_description: Anti-proliferative assay (Oncodesign)
# Assay type: cell-based
# assay_conditions: Homo sapiens; KB (HEAD AND NECK); read-out: IC50 (Concentration of test compound)
parameter_measured: pIC50
The value called pIC50 is obtained by taking minus log10 of the concentration in mol/L.

input: # input compound: CC(C)c1cc(C(=O)N2Cc3ccc(CN4CCN(C)CC4)cc3C2)c(O)cc1O ; wanted: its pIC50
output: 7.32

* * *

# Test system: NCI-H596
# measurement_description: Anti-proliferative assay (Oncodesign)
# Assay type: cell-based
# assay_conditions: Homo sapiens; NCI-H596 (LUNG); read-out: IC50 (Concentration of test compound)
parameter_measured: IC50 (nM)
Give the value, in units of nM, as a plain number.

input: I am curious: what IC50 value has been reported for CC(C)c1cc(C(=O)N2Cc3ccc(CN4CCN(C)CC4)cc3C2)c(O)cc1O ?
output: 84

* * *

Assign Percentage remaining Human blood to each entry below.
# measurement_description: Whole blood stability
# Type: in vitro ADME
# assay_conditions: 1 μM, 37° C., 120 mins
Please state the figure in %; there is no need to write the unit.

input: Please give the measured Percentage remaining Human blood for this compound: CC(C)c1cc(C(=O)N2Cc3ccc(CN4CCN(C)CC4)cc3C2)c(OC(=O)OC(C)(C)C)cc1OC(=O)OC(C)(C)C
output: 26

input: Try the compound CC(C)c1cc(C(=O)N2Cc3ccc(CN4CCN(C)CC4)cc3C2)c(OC(=O)N2CCOCC2)cc1O
output: 97

input: Subsequent entry: COCOc1cc(OCOC)c(C(C)C)cc1C(=O)N1Cc2ccc(CN3CCN(C)CC3)cc2C1
output: 111

input: What about CC(C)c1cc(C(=O)N2Cc3ccc(CN4CCN(C)CC4)cc3C2)c(OC(=O)N2CCOCC2)cc1OC(=O)N1CCOCC1 ?
output: 76

input: Next compound: COCOc1cc(O)c(C(=O)N2Cc3ccc(CN4CCN(C)CC4)cc3C2)cc1C(C)C
output: 114

input: Try this compound too: COc1cc(OC)c(C(C)C)cc1C(=O)N1Cc2ccc(CN3CCN(C)CC3)cc2C1
output: 107

input: Now the same for CC(C)c1cc(C(=O)N2Cc3ccc(CN4CCN(C)CC4)cc3C2)c(O)cc1OC(=O)N1CCOCC1
output: 82

input: What about this compound? C=CCOc1cc(OCC=C)c(C(C)C)cc1C(=O)N1Cc2ccc(CN3CCN(C)CC3)cc2C1
output: 105

input: Next record, please: CC(C)c1cc(C(=O)N2Cc3ccc(CN4CCN(C)CC4)cc3C2)c(O)cc1OC(=O)N(C)C
output: 90

input: Now this one: C=CCOc1cc(O)c(C(C)C)cc1C(=O)N1Cc2ccc(CN3CCN(C)CC3)cc2C1
output: 109

input: Subsequent entry: COc1cc(O)c(C(C)C)cc1C(=O)N1Cc2ccc(CN3CCN(C)CC3)cc2C1
output: 100

input: Also need C=CCOc1cc(O)c(C(=O)N2Cc3ccc(CN4CCN(C)CC4)cc3C2)cc1C(C)C , thanks.
output: 115

input: Try this compound next: CC(C)c1cc(C(=O)N2Cc3ccc(CN4CCN(C)CC4)cc3C2)c(OC(=O)N(C)C)cc1O
output: 104

input: Likewise for CC(C)c1cc(C(=O)N2Cc3ccc(CN4CCN(C)CC4)cc3C2)c(OC(=O)N2CCCC2)cc1OC(=O)N1CCCC1 ?
output: 110

input: Next: CCN(CC)C(=O)Oc1cc(OC(=O)N(CC)CC)c(C(C)C)cc1C(=O)N1Cc2ccc(CN3CCN(C)CC3)cc2C1
output: 108

input: # repeat for CCN(CC)C(=O)Oc1cc(O)c(C(C)C)cc1C(=O)N1Cc2ccc(CN3CCN(C)CC3)cc2C1
output: 94

input: Now try CC(C)c1cc(C(=O)N2Cc3ccc(CN4CCN(C)CC4)cc3C2)c(OC(=O)N2CCCC2)cc1O .
output: 110

input: Now consider COc1cc(O)c(C(=O)N2Cc3ccc(CN4CCN(C)CC4)cc3C2)cc1C(C)C and answer again.
output: 122

* * *

# Test system: Hs 294T
# measurement_description: Anti-proliferative assay (Oncodesign)
# Format: cell-based
# assay_conditions: Homo sapiens; Hs 294T (SKIN); read-out: IC50 (Concentration of test compound)
parameter_measured: pIC50
Recall that pIC50 is obtained by taking minus log10 of the concentration measured in molar.

input: Item CC(C)c1cc(C(=O)N2Cc3ccc(CN4CCN(C)CC4)cc3C2)c(O)cc1O has what recorded pIC50?
output: 6.66

* * *

# System: AGS
# measurement_description: Anti-proliferative assay (Oncodesign)
# Type: cell-based
# assay_conditions: Homo sapiens; AGS (STOMACH); read-out: IC50 (Concentration of test compound)
parameter_measured: IC50 (nM)
Write it as a number; the unit nM goes unstated.

input: Any idea what its IC50 is? The compound is CC(C)c1cc(C(=O)N2Cc3ccc(CN4CCN(C)CC4)cc3C2)c(O)cc1O
output: 66

* * *

# measurement_description: Liver homogenate stability
# Type: in vitro ADME
# assay_conditions: 1 μM, 37° C., 120 mins
parameter_measured: Percentage remaining Mouse Liver (%)
Please give a number only; it is taken to be in %.

input: Which Percentage remaining Mouse Liver value is on record for COc1cc(O)c(C(C)C)cc1C(=O)N1Cc2ccc(CN3CCN(C)CC3)cc2C1 ?
output: 104

input: What about this compound? CC(C)c1cc(C(=O)N2Cc3ccc(CN4CCN(C)CC4)cc3C2)c(O)cc1O
output: 112

input: Similarly, CC(C)c1cc(C(=O)N2Cc3ccc(CN4CCN(C)CC4)cc3C2)c(OC(=O)N(C)C)cc1OC(=O)N(C)C ?
output: 1

* * *

Would you mind telling me the reported Percentage remaining Human blood of each entry?
# measurement_description: Whole blood stability
# Format: in vitro ADME
# assay_conditions: 1 μM, 37° C., 120 mins
Where a name gives a salt, the structure may show the parent alone.
Express the result in % but write the number alone.

input: Could you tell me which Percentage remaining Human blood is on file for CCN(CC)C(=O)Oc1cc(O)c(C(=O)N2Cc3ccc(CN4CCN(C)CC4)cc3C2)cc1C(C)C [Example 15] ?
output: 123

input: Same thing, different compound: CC(C)c1cc(C(=O)N2Cc3ccc(CN4CCN(C)CC4)cc3C2)c(OC(=O)OC(C)(C)C)cc1OC(=O)N(C)C [Example 22]
output: 18

input: One more compound: CC(C)c1cc(C(=O)N2Cc3ccc(CN4CCN(C)CC4)cc3C2)c(O)cc1OC(=O)N1CCCC1 [Example 19]
output: 102

input: Do the same for CC(C)c1cc(C(=O)N2Cc3ccc(CN4CCN(C)CC4)cc3C2)c(O)cc1O [Compound X] please
output: 100

input: Same for CC(C)c1cc(C(=O)N2Cc3ccc(CN4CCN(C)CC4)cc3C2)c(OC(=O)C(C)(C)C)cc1OC(=O)C(C)(C)C [Example 24, dihydrochloride]
output: 11

input: Could you do the same for CC(C)c1cc(C(=O)N2Cc3ccc(CN4CCN(C)CC4)cc3C2)c(OC(=O)N(C)C)cc1OC(=O)N(C)C [Example 11] , please?
output: 93

input: Again, but for COCOc1cc(O)c(C(C)C)cc1C(=O)N1Cc2ccc(CN3CCN(C)CC3)cc2C1 [Example 7]
output: 109

FYI, the data here is from patent US8383619B2.
